Please provide measured pIC50 for the entries that follow.
- experimental_target: UniProt P00734
- procedure_details: Thrombin-inhibitory activity in plasma samples (ecarin-activated)
- Assay type: biochemical
- condition_details: citrate plasma, ecarin activation, fluorogenic thrombin substrate; read at about 70% of maximum signal (about 12 min); in some cases means
- Protocol: To determine the inhibition of thrombin in plasma samples, plasma prothrombinase is activated by ecarin. Thrombin activity and/or its inhibition by potential inhibitors is/are then measured fluorescently by addition of a substrate. The substances to be tested are dissolved in various concentrations in dimethyl sulphoxide and diluted with water. […] The plate is measured in a SpectraFluorplus Reader using a 360 nm excitation filter and a 465 nm emission filter every minute over 20 minutes. […]
Answers are plain numbers, as −log10 of the molar value.

COc1cc(C(=O)N2CC(C)(CC(C)O)OC[C@H]2C)cn2nc(NCc3cccc(Cl)c3)nc12 (single isomer, unassigned) ... 8.39
COc1cc(C(=O)N2CC(C)(CCO)OCC2CF)cn2nc(NCc3cccc(Cl)c3)nc12 (stereo not shown) [Example 50] ... 6.91
COc1cc(C(=O)N2CC(C)(C)OCC2CC(C)O)cn2nc(NCc3cccc(Cl)c3)nc12 (single isomer, unassigned) [Example 49] ... 7.62

Proceeding to the next molecule to report its pIC50.
State its pIC50 on UniProt P00734: COc1cc(C(=O)N2CC(C)(C)OCC2CF)cn2nc(NCc3cccc(Cl)c3)nc12 (single isomer, unassigned) [Example 14]
7.24

###

- experimental_target: thrombin (Homo sapiens)
- procedure_details: Measurement of the thrombin inhibition in buffer
- Type: biochemical
- condition_details: human thrombin 0.06 nmol/l in Tris buffer pH 7.4, 22° C., substrate Boc-Asp(OBzl)-Pro-Arg-AMC; in some cases means of individual determinations
property_label: log10 IC50 (log10 of the value in µM)
All values: base-10 log of IC50 in µM.

# return log10 IC50 for each item in the list
1. COc1cc(C(=O)N2CC(C)OCC2(C)C)cn2nc(NCc3cccc(Cl)c3)nc12 (racemic) [Example 26]
2. COc1cc(C(=O)N2CC(C)OCC23CC(O)C3)cn2nc(NC(CF)c3cccc(Cl)c3)nc12 (single isomer, unassigned) [Example 23]
3. COCC1COC(C)(CCO)CN1C(=O)c1cc(OC)c2nc(NCc3cccc(Cl)c3)nn2c1 (stereo not shown) [Example 71]
4. CC[C@@H]1COC(C)(CCO)CN1C(=O)c1cc(OC)c2nc(NCc3cccc(Cl)c3)nn2c1 (stereo partly shown) [Example 69]
5. COc1cc(C(=O)N2CC(C)OCC23CC(O)C3)cn2nc(NCc3cccc(Cl)c3)nc12 (single isomer, unassigned) [Example 21]
6. COc1cc(C(=O)N2CC(C)(CCO)OCC2CF)cn2nc(NCc3cccc(Cl)c3)nc12 (single isomer, unassigned) [Example 52]
7. COc1cc(C(=O)N2CC(C)(CC(C)O)OCC2(C)C)cn2nc(NCc3cccc(Cl)c3)nc12 (single isomer, unassigned) [Example 35]

1: -1.06; 2: -1.54; 3: -1.46; 4: -1.60; 5: -1.37; 6: 0.08; 7: -2.62

###

- experimental_target: thrombin (Homo sapiens, UniProt P00734)
- procedure_details: Thrombin-inhibitory activity in plasma samples (ecarin-activated)
- Format: biochemical
- condition_details: citrate plasma, ecarin activation, fluorogenic thrombin substrate; read at about 70% of maximum signal (about 12 min); in some cases means
# thresholds on IC50 define classes: lower segment: < 20 nM; middle segment: ≥ 20 nM and < 70 nM; upper segment: ≥ 70 nM

Worked examples, 3 molecules total:
COc1cc(C(=O)N2CC(C)OCC2CCO)cn2nc(NCc3cccc(Cl)c3)nc12 (single isomer, unassigned) [Example 16] ... upper segment
COc1cc(C(=O)N2CC(C)OCC2CCO)cn2nc(NCc3cccc(Cl)c3)nc12 (single isomer, unassigned) [Example 17] ... upper segment
COc1cc(C(=O)N2CC(C)(C)OCC2C(C)(C)O)cn2nc(NCc3cccc(Cl)c3)nc12 (single isomer, unassigned) ... middle segment

Class (by measured IC50) for COc1cc(C(=O)N2CC(C)(CCO)OCC2(C)C)cn2nc(NCc3cccc(Cl)c3)nc12 (single isomer, unassigned) [Example 33]
lower segment

Class (by measured IC50) for COc1cc(C(=O)N2CC(C)(CC(C)O)OCC2(C)C)cn2nc(NCc3cccc(Cl)c3)nc12 (single isomer, unassigned) [Example 35]
lower segment
